molecular target: RORγ (UniProt P51449); assay: RORγ Gal4 Reporter Gene Assay in 293T cells (firefly and renilla luciferase); format: cell-based, human; details: second value of the cell; Gal4 reporter gene assay in 293T cells, firefly luciferase
Endpoint label: pIC50 (FF)

Cc1c(C(=O)N[C@H]2C[C@H](C(=O)O)C2)cc(-c2ccc(S(=O)(=O)NC(C)(C)C)c(C(C)(C)C)c2)n1CC1CCCCC1 [17/221] | 7.1
Cc1c(C(=O)NC23CCC(C(=O)O)(CC2)C3)cc(-c2cc(C(C)(C)O)cc(C3(C)CC3)c2)n1CC1CCCCC1 [17/301] | 7.6
Cc1c(C(=O)NCC(C)(C)NS(C)(=O)=O)cc(-c2cc(C(C)(C)C)c3c(c2)C2(CCO3)CC2)n1CC1CCCCC1 [1/103] | 7.3
Cc1c(C(=O)NCCCS(C)(=O)=O)cc(-c2cc(C(C)(C)C)c3c(c2)C2(CCO3)CC2)n1CC1CCCCC1 [17/80] | 6.9
Cc1c(C(=O)NCC2COCCN2C)cc(-c2cc(C(C)(C)C)c3c(c2)C2(CCO3)CC2)n1CC1CCCCC1 (centres unmarked) [17/14] | 5.9
Cc1c(C(=O)NC2CCOCC2)cc(-c2cc(C(C)(C)C)c3c(c2)C2(CCO3)CC2)n1CC1CCCCC1 [1/93] | 7.4
Cc1c(C(=O)NCCS(N)(=O)=O)cc(-c2cc(C(C)(C)O)cc(C3(C)CC3)c2)n1CC1CCCCC1 [17/315] | 6.5
Cc1c(C(=O)NCC2(O)CCS(=O)(=O)CC2)cc(-c2ccc(S(=O)(=O)NC(C)(C)C)c3ccccc23)n1CC1CCCCC1 [17/268] | 7.7
Cc1c(C(=O)N[C@H]2C[C@H](C(=O)O)C2)cc(-c2cc(C(=O)NC(C)(C)C)nc(C3(C)CC3)n2)n1CC1CCCCC1 [17/372] | 6.3
Cc1c(C(=O)NC2CCOCC2)cc(-c2cc(Cl)c(S(=O)(=O)NC(C)(C)C)c(C(F)(F)F)c2)n1CC1CCCCC1 [17/113] | 6.8
Cc1c(C(=O)NCCC(C)(C)C(=O)O)cc(-c2cc(C(C)(C)C)cc(C3(C)CC3)c2)n1CC1CCCCC1 [17/73] | 7.2
Cc1c(C(=O)NC2COC2)cc(-c2cc(C(C)(C)C)cc(C(C)(C)C)c2)n1S(=O)(=O)N1CCCCCC1 [7/4] | 7.1
Cc1c(C(=O)NC2CCOCC2)cc(-c2cc(C(=O)NC(C)(C)C)cc(C3(C)CC3)c2)n1CC1CCCCC1 [17/337] | 7.7
Cc1c(C(=O)NCC2CC(C(=O)O)C2)cc(-c2cc(C(C)(C)O)cc(C3(C)CC3)c2)n1CC1CCCCC1 (centres unmarked) [17/246] | 6.1
